protocol.details: chemical genetic growth profiling, strain panel (AID 1159580);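 further: tested at 20 µM; growth read once vehicle control cultures reached saturation at 30 °C; 1 = growth at the plate median or of vehicle wells; lower values mean less growth of the strain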
condition.notes: S. cerevisiae deletion strains, growth OD, locus YNL175C, strain NOP13
Screen size: about 5,500 compounds; about 2,000 (36%) were called active. Another 18% or so got no clear call; they are omitted. No stated cut-off is given here; in the data, active means normalized growth mostly below about 0.91 (no sharp cut-off); inconclusive means no clear call, values can overlap the other calls; inactive means mostly above about 0.92. The list shows a part of the results.
Possible outcomes: class 1 = active, class 0 = inactive

| molecule | class.name |
| --- | --- |
| OC1CCCCC1N1CCC(c2ccccc2)CC1 (centres undefined) | class 0 |
| CC(C)CC(NP(=O)(O)O[C@@H]1O[C@@H](C)[C@H](O)[C@@H](O)[C@H]1O)C(=O)NC(Cc1c[nH]c2ccccc12)C(=O)O (some centres undefined) | class 0 |
| Cn1ccc2cc3c(cc21)CCN3C(=O)Nc1cccnc1 | class 0 |
| CC1=C(/C=C/C(C)=C/C=C/C(C)=C\C(=O)O)C(C)(C)CCC1 | class 0 |
| CN1CCc2cc(NC(=O)Nc3cccnc3)ccc21 | class 0 |
| COc1cccc(-c2cc(=O)c3ccccc3o2)c1N | class 0 |
| c1ccc(C2CC2)c(OCC2=NCCN2)c1 | class 0 |
| CNC(CC(=O)O)C(=O)O (centres undefined) | class 0 |
| COc1ccccc1N1CCN(CCCNc2c(C)c(=O)n(C)c(=O)n2C)CC1 | class 0 |
| CC1=C(/C=C/C(C)=C/C=C/C(C)=C/C(=O)Nc2ccc(O)cc2)C(C)(C)CCC1 | class 0 |
| CCCN(CCC)CCc1cccc2c1CC(=O)N2 | class 0 |
| CCN(CC)CCCCCCCCOC(=O)c1cc(OC)c(OC)c(OC)c1 | class 0 |
| O=c1cc(N2CCOCC2)oc2c(-c3ccccc3)cccc12 | class 0 |
| O=c1cc(O)cc(/C=C/c2ccc(O)c(O)c2)o1 | class 0 |
| COC(=O)c1c(-c2cc(OC)c(OC)c(OC)c2)c2ccc(OCc3ccccn3)cc2c(=O)n1-c1ccc(N)cc1 | class 0 |
| CCCN1CCc2cc(O)cc3c2[C@H]1Cc1ccc(O)c(O)c1-3 | class 0 |
| CCCn1c(=O)c2[nH]c(-c3ccc(OCC(=O)NCCN)cc3)nc2n(CCC)c1=O | class 0 |
| CC12C(=O)OC(=O)C1(C)C1CCC2O1 (centres undefined) | class 1 |
| CCCN1CCO[C@@H]2c3cc(O)ccc3OC[C@H]21 | class 0 |
| CC1Cc2cc3c(cc2C(c2ccc(N)cc2)=NN1)OCO3 (centres undefined) | class 0 |
| CC(N)=NCCC[C@H](N)C(=O)O | class 0 |
| Oc1cc(O)cc(/C=C/c2ccc(O)c(O)c2)c1 | class 1 |
| COc1cc2c(cc1C(F)(F)F)N(C(=O)Nc1cc(F)cc(-c3cccnc3)c1)CC2 | class 0 |
| NC(N)=NOCCC(N)C(=O)O (centres undefined) | class 0 |

# credit: PubChem BioAssay AID1159580
